- PROCEDURE_DETAILS: Antibiotic concentrations in porcine oral fluid after intramuscular application (UHPLC-MS/MS)
- Type: in vivo
- MEASUREMENT_SETUP: oral fluid, pigs, i.m., at the end of the withdrawal period for tissues of each drug (Table 3)
ENDPOINT_NAME: concentration in oral fluid at withdrawal period (ng/mL)

CC[C@H]1OC(=O)C[C@@H](O)[C@H](C)[C@@H](O[C@@H]2O[C@H](C)[C@@H](O[C@H]3C[C@@](C)(O)[C@@H](O)[C@H](C)O3)[C@H](N(C)C)[C@H]2O)[C@@H](CC=O)C[C@@H](C)C(=O)/C=C/C(C)=C/[C@@H]1CO[C@@H]1O[C@H](C)[C@@H](O)[C@@H](OC)[C@H]1OC : 6.6

A: CCC[C@@H]1C[C@@H](C(=O)N[C@@H]([C@H]2O[C@H](SC)[C@H](O)[C@@H](O)[C@H]2O)[C@@H](C)O)N(C)C1
B: COc1ncnc(NS(=O)(=O)c2ccc(N)cc2)c1OC
C: COc1cc(Cc2cnc(N)nc2N)cc(OC)c1OC
**Q:** Order the 3 compounds from highest to lowest concentration in oral fluid at withdrawal period. Your answer should be the labels, listed in the requested order.
**A:** A, B, C

###

- PROCEDURE_DETAILS: Antibiotic concentrations in porcine oral fluid after intramuscular application (UHPLC-MS/MS)
- Format: in vivo
- MEASUREMENT_SETUP: male, (Landrace × Yorkshire) × Duroc crossbred (DanBred sows), pig, intramuscular; oral fluid, pigs, i.m., time 8 d, posttreatment; read-out: Avarage Concentrations in oral fluid
ENDPOINT_NAME: concentration at 8 d (ng/mL)

I: CCC[C@@H]1C[C@@H](C(=O)N[C@@H]([C@H]2O[C@H](SC)[C@H](O)[C@@H](O)[C@H]2O)[C@@H](C)O)N(C)C1
II: CC1(C)S[C@@H]2[C@H](NC(=O)Cc3ccccc3)C(=O)N2[C@H]1C(=O)O
III: C=C[C@]1(C)C[C@@H](OC(=O)CSCCN(CC)CC)[C@]2(C)[C@H](C)CC[C@]3(CCC(=O)[C@H]32)[C@@H](C)[C@@H]1O
**Q:** Order the entries by their reported concentration at 8 d, beginning at the minimum. Give the labels in the order requested.
**A:** II, I, III

a: COc1ncnc(NS(=O)(=O)c2ccc(N)cc2)c1OC
b: COc1cc(Cc2cnc(N)nc2N)cc(OC)c1OC
**Q:** Of the pair a and b , name the member with the lesser recorded concentration at 8 d. # reply format: chosen label
**A:** b

###

- PROCEDURE_DETAILS: Antibiotic concentrations in porcine oral fluid after intramuscular application (UHPLC-MS/MS)
- Format: in vivo
- MEASUREMENT_SETUP: male, (Landrace × Yorkshire) × Duroc crossbred (DanBred sows), pig, intramuscular; oral fluid, pigs, i.m., time 16 d, posttreatment; read-out: Avarage Concentrations in oral fluid
ENDPOINT_NAME: concentration at 16 d (ng/mL)

Examples with answers:
CCC[C@@H]1C[C@@H](C(=O)N[C@@H]([C@H]2O[C@H](SC)[C@H](O)[C@@H](O)[C@H]2O)[C@@H](C)O)N(C)C1 : 337
CC[C@H]1OC(=O)C[C@@H](O)[C@H](C)[C@@H](O[C@@H]2O[C@H](C)[C@@H](O[C@H]3C[C@@](C)(O)[C@@H](O)[C@H](C)O3)[C@H](N(C)C)[C@H]2O)[C@@H](CC=O)C[C@@H](C)C(=O)/C=C/C(C)=C/[C@@H]1CO[C@@H]1O[C@H](C)[C@@H](O)[C@@H](OC)[C@H]1OC : 52.8

I: COc1ncnc(NS(=O)(=O)c2ccc(N)cc2)c1OC
II: C=C[C@]1(C)C[C@@H](OC(=O)CSCCN(CC)CC)[C@]2(C)[C@H](C)CC[C@]3(CCC(=O)[C@H]32)[C@@H](C)[C@@H]1O
III: COc1cc(Cc2cnc(N)nc2N)cc(OC)c1OC
**Q:** Rank entries according to their concentration at 16 d, from the largest number down. Enter labels, ranked according to the request.
**A:** II, I, III

###

- PROCEDURE_DETAILS: Antibiotic concentrations in porcine oral fluid after intramuscular application (UHPLC-MS/MS)
- Type: in vivo
- MEASUREMENT_SETUP: male, (Landrace × Yorkshire) × Duroc crossbred (DanBred sows), pig, intramuscular; oral fluid, pigs, i.m., time 26 d, posttreatment; read-out: Avarage Concentrations in oral fluid
ENDPOINT_NAME: concentration at 26 d (ng/mL)

CCC[C@@H]1C[C@@H](C(=O)N[C@@H]([C@H]2O[C@H](SC)[C@H](O)[C@@H](O)[C@H]2O)[C@@H](C)O)N(C)C1 [LIN, lincomycin] : 160
CC[C@H]1OC(=O)C[C@@H](O)[C@H](C)[C@@H](O[C@@H]2O[C@H](C)[C@@H](O[C@H]3C[C@@](C)(O)[C@@H](O)[C@H](C)O3)[C@H](N(C)C)[C@H]2O)[C@@H](CC=O)C[C@@H](C)C(=O)/C=C/C(C)=C/[C@@H]1CO[C@@H]1O[C@H](C)[C@@H](O)[C@@H](OC)[C@H]1OC [TYL, tylosin] : 3
COc1cc(Cc2cnc(N)nc2N)cc(OC)c1OC [TRMP, trimethoprim] : 15.9

I: COc1ncnc(NS(=O)(=O)c2ccc(N)cc2)c1OC [SDX, sulfadoxine]
II: C=C[C@]1(C)C[C@@H](OC(=O)CSCCN(CC)CC)[C@]2(C)[C@H](C)CC[C@]3(CCC(=O)[C@H]32)[C@@H](C)[C@@H]1O [TIAM, tiamulin]
**Q:** Lower value for measured concentration at 26 d? Options: I , II Field: selected label. Fill in the label of the entry you choose.
**A:** I

###

- PROCEDURE_DETAILS: Antibiotic concentrations in porcine oral fluid after intramuscular application (UHPLC-MS/MS)
- Format: in vivo
- MEASUREMENT_SETUP: male, (Landrace × Yorkshire) × Duroc crossbred (DanBred sows), pig, intramuscular; oral fluid, pigs, i.m., time 22 d, posttreatment; read-out: Avarage Concentrations in oral fluid
- Protocol: All animals were born in the sow farm (8000 DanBred sows) located in Northern Poland, after crossing ♀(♂Landrace × ♀Yorskshire) × ♂Duroc. Piglets were weaned after 4 weeks of lactation with an average weight of 6 kg and then moved to the weaner stable (23,000 weaners). […] Before the analysis, the oral fluid samples were centrifuged at 9447× rcf. […] For the extraction of analysed antibiotics, 600 µL of 0.5% formic acid was added, vortexed for 30 s and centrifuged for 10 min at 9447× rcf. […]
ENDPOINT_NAME: concentration at 22 d (ng/mL)

A: C=C[C@]1(C)C[C@@H](OC(=O)CSCCN(CC)CC)[C@]2(C)[C@H](C)CC[C@]3(CCC(=O)[C@H]32)[C@@H](C)[C@@H]1O [TIAM, tiamulin]
B: COc1cc(Cc2cnc(N)nc2N)cc(OC)c1OC [TRMP, trimethoprim]
C: COc1ncnc(NS(=O)(=O)c2ccc(N)cc2)c1OC [SDX, sulfadoxine]
D: CCC[C@@H]1C[C@@H](C(=O)N[C@@H]([C@H]2O[C@H](SC)[C@H](O)[C@@H](O)[C@H]2O)[C@@H](C)O)N(C)C1 [LIN, lincomycin]
**Q:** List the 4 entries from lowest concentration at 22 d to highest concentration at 22 d value. Provide your answer as the labels ordered per the instruction.
**A:** C, B, D, A

###

- PROCEDURE_DETAILS: Antibiotic concentrations in porcine oral fluid after intramuscular application (UHPLC-MS/MS)
- Assay type: in vivo
- MEASUREMENT_SETUP: male, (Landrace × Yorkshire) × Duroc crossbred (DanBred sows), pig, intramuscular; oral fluid, pigs, i.m., time 20 d, posttreatment; read-out: Avarage Concentrations in oral fluid
ENDPOINT_NAME: concentration at 20 d (ng/mL)

Below are worked cases with known answers.
C=C[C@]1(C)C[C@@H](OC(=O)CSCCN(CC)CC)[C@]2(C)[C@H](C)CC[C@]3(CCC(=O)[C@H]32)[C@@H](C)[C@@H]1O : 133
CC[C@H]1OC(=O)C[C@@H](O)[C@H](C)[C@@H](O[C@@H]2O[C@H](C)[C@@H](O[C@H]3C[C@@](C)(O)[C@@H](O)[C@H](C)O3)[C@H](N(C)C)[C@H]2O)[C@@H](CC=O)C[C@@H](C)C(=O)/C=C/C(C)=C/[C@@H]1CO[C@@H]1O[C@H](C)[C@@H](O)[C@@H](OC)[C@H]1OC : 25.4

A: CCC[C@@H]1C[C@@H](C(=O)N[C@@H]([C@H]2O[C@H](SC)[C@H](O)[C@@H](O)[C@H]2O)[C@@H](C)O)N(C)C1
B: COc1cc(Cc2cnc(N)nc2N)cc(OC)c1OC
C: COc1ncnc(NS(=O)(=O)c2ccc(N)cc2)c1OC
**Q:** Ascending by concentration at 20 d, please: list the molecules accordingly. // rank by listing labels in the order requested
**A:** B, C, A

meta.source: paper PMC8879095
